All values here come from the supplement of paper PMC9262897.

# Tested on: E. coli TESEC Mtb Alr
# testSummary: growth (OD600 after 10 h); higher = more growth (less inhibition)
# statedConditions: arabinose 100000 nM; compound 0.1 mM; raw OD600 reference: median of DMSO wells 0.201, cell-free background 0.041
Counter-ions that a name gives are not always drawn.
valueKind: growth
Returns: the value as a bare number; no unit string appended.

Some entries whose results are on file:
INSERT INTO assay_data (compound, testresult) VALUES
  ('O=C1NCN(c2ccccc2)C12CCN(CCCC(c1ccc(F)cc1)c1ccc(F)cc1)CC2 [Fluspirilen]', 0.0775),
  ('NC1CCN(c2c(F)cc3c(=O)c(C(=O)O)cn(C4CC4)c3c2Cl)C1 (configuration not stated) [Clinafloxacin]', 0.0418),
  ('CN[C@@H]1[C@@H](O[C@H]2O[C@H](CO)[C@@H](N)[C@H](O)[C@H]2O)OC2C[C@@H](N)[C@@H](O[C@H]3[C@H](O)[C@@H](O)[C@H](N)C[C@@H]3N)OC2[C@@H]1O (some centres not stated) [Apramycin]', 0.0442),
  ('CC(C(O)c1ccc(O)cc1)N1CCC(Cc2ccccc2)CC1 (configuration not stated) [Ifenprodil tartrate]', 0.194),
  ('Cc1cc2c(cc1S(N)(=O)=O)S(=O)(=O)CCC2 [Meticrane]', 0.234),
  ('COc1c(N2C[C@@H]3CCCN[C@@H]3C2)c(F)cc2c(=O)c(C(=O)O)cn(C3CC3)c12 [Moxifloxacin]', 0.0415),
  ('CCOC(=O)[N-]c1c[n+](N2CCOCC2)no1 [Molsidomine]', 0.244),
  ('NC(=O)c1cc[n+](CC2=C(C(=O)[O-])N3C(=O)[C@@H](NC(=O)[C@@H](c4ccccc4)S(=O)(=O)O)[C@H]3SC2)cc1 [Cefsulodin sodium salt]', 0.228),
  ('CC(=O)CCCCn1c(=O)c2c(ncn2C)n(C)c1=O [Pentoxifylline]', 0.203),
  ('CNNCc1ccc(C(=O)NC(C)C)cc1 [Procarbazine hydrochloride]', 0.217);

Data request, read-out growth, for CC(C)(C)NCC(O)c1cc(O)cc(O)c1 (configuration not stated) [Terbutaline hemisulfate]
0.238

Data request, read-out growth, for COc1cc2nc(N3CCN(C(=O)c4ccco4)CC3)nc(N)c2cc1OC [Prazosin hydrochloride]
0.185

Data request, read-out growth, for C[C@@H]1C[C@H]2[C@@H]3C[C@H](F)C4=CC(=O)C=C[C@]4(C)[C@@]3(F)[C@@H](O)C[C@]2(C)[C@@]1(O)C(=O)COC(=O)C(C)(C)C [Flumethasone pivalate]
0.209
